Tested on: Klebsiella pneumoniae
measurementProtocol: Antibacterial activity against clinically isolated Klebsiella pneumoniae RBRJ019 assessed as inhibition of bacterial growth at 50 uM measured after 48 hrs by agar well diffusion method
Assay type: functional
conditionContext: read-out: IZ
readout: zone of inhibition at 50 µM (mm)
All answers are understood in mm, so give the number only.

Lookup result for `Cc1ccc(C(C)C)c(OCc2cn(CCCCN3C(=O)C(=O)c4cc(Cl)ccc43)nn2)c1` ; measured zone of inhibition at 50 µM: 12.3

For reference, reported zone of inhibition at 50 µM for `Cc1ccc(C(C)C)c(OCc2cn(CCCN3C(=O)C(=O)c4cc(F)ccc43)nn2)c1` stands at 15.4

Lookup result for `COc1ccc2c(c1)C(=O)C(=O)N2CCCn1cc(COc2cc(C)ccc2C(C)C)nn1` ; measured zone of inhibition at 50 µM: 18.1

Item: `Cc1ccc(C(C)C)c(OCc2cn(CCN3C(=O)C(=O)c4cc(Br)ccc43)nn2)c1` | zone of inhibition at 50 µM: 11.2

Kindly note the recorded zone of inhibition at 50 µM for `Cc1ccc(C(C)C)c(OCc2cn(CCCN3C(=O)C(=O)c4cc(I)ccc43)nn2)c1` , which is 11.3

The recorded zone of inhibition at 50 µM for `Cc1ccc(C(C)C)c(OCc2cn(CCN3C(=O)C(=O)c4cc(Cl)ccc43)nn2)c1` is 15.2

response.value for `Cc1ccc(C(C)C)c(OCc2cn(CCCN3C(=O)C(=O)c4ccccc43)nn2)c1` (field: zone of inhibition at 50 µM) = 20.2

So for `Cc1ccc(C(C)C)c(OCc2cn(CCN3C(=O)C(=O)c4cc(I)ccc43)nn2)c1` , the logged zone of inhibition at 50 µM turned out to be 11.6

// sample `Cc1ccc(C(C)C)c(OCc2cn(CCCCN3C(=O)C(=O)c4ccccc43)nn2)c1` , its zone of inhibition at 50 µM was 14.4

Looking up `COc1ccc2c(c1)C(=O)C(=O)N2CCCCn1cc(COc2cc(C)ccc2C(C)C)nn1` , I found its zone of inhibition at 50 µM recorded as 12.2
